- experimental.system: glycoprotein IIb/IIIa on activated platelets (Homo sapiens, UniProt P08514;P08514;P05106 P08514:32-887,P08514:891-1039,P05106:27-788)
- assay.comment: filter; apparent Kd on activated platelets, 37 C
- measurement.setup: label: 5'-32P
metric.name: pKd
Give bare numbers, as −log10 of the molar value.

pKd measured on C1 (ssRNA, 2'-F pyrimidines) RNA: GGGAGGACGAUGCGGUAUAGACCACAGCCUGAGUAUUAACCACCAACCCAGGUACUCAGACGACUCGCUGAGGAUCC = 8.22
